Assay: Pharmacokinetics in mice after s.c. dosing, bioassay of plasma and urine
Details: mouse, plasma, sc, 20 mg/kg
Please respond with reported Tmax for every item in the list.
One number for each entry, in min.

{"compound": "CNCC[C@@H](O)[C@@H]1C[C@H](SC2=C(C(=O)O)N3C(=O)[C@H]([C@@H](C)O)[C@H]3[C@H]2C)CN1", "unit.abbrev": "min", "Tmax": 10.8}

Okay, now this compound:
QUERY: Which measured Tmax value corresponds to C[C@@H](O)[C@H]1C(=O)N2C(C(=O)O)=C(SCCN=CN)C[C@H]12 [Imipenem, monohydrate] ?
RESULT: 10.8

====

Assay: Pharmacokinetics in mice after s.c. dosing, bioassay of plasma and urine
Conditions: mouse, plasma, sc, 20 mg/kg
quantity: half-life (min)
Give bare numbers, in min.

{"molecule": "C[C@@H](O)[C@H]1C(=O)N2C(C(=O)O)=C(SCCN=CN)C[C@H]12 [Imipenem, monohydrate]", "reported": 7.2}

Okay, now this molecule:
QUERY: Which measured half-life value corresponds to CNCC[C@@H](O)[C@@H]1C[C@H](SC2=C(C(=O)O)N3C(=O)[C@H]([C@@H](C)O)[C@H]3[C@H]2C)CN1 [Example 19] ?
RESULT: 7.8

====

Assay: Pharmacokinetics in mice after s.c. dosing, bioassay of plasma and urine
Details: mouse, plasma, sc, 20 mg/kg
quantity: Cmax (ng/mL)
One number for each entry, in ng/mL.

{"compound": "CNCC[C@@H](O)[C@@H]1C[C@H](SC2=C(C(=O)O)N3C(=O)[C@H]([C@@H](C)O)[C@H]3[C@H]2C)CN1 [Example 19]", "Cmax, ng/mL": 29000}

QUERY: Which measured Cmax value corresponds to C[C@@H](O)[C@H]1C(=O)N2C(C(=O)O)=C(SCCN=CN)C[C@H]12 [Imipenem, monohydrate] ?
RESULT: 21500

// provenance: patent US5550121A
